Assay: Efflux ratio of apparent permeability in MDCK-MDR1 cells
Format: ADME, cell-based, Canis lupus familiaris
Conditions: dog
Measured Endpoint: efflux ratio
Give bare numbers.

efflux ratio in this record for `CCn1nnc2c(C)c([C@H](c3ccc4c(c3)CN(C(=O)c3c(C)c(C)cc(C)c3C)CC4)C(C)(C)C(=O)O)ccc21` : 104

----------
Assay: Protein binding in rat plasma assessed as unbound fraction at 2 uM by rapid equilibrium dialysis method
Type: ADME, cell-free
Measured Endpoint: fraction unbound at 2 µM
One number for each entry.

fraction unbound at 2 µM in this record for `CCn1nnc2c(C)c([C@@H](CC(=O)O)c3ccc4c(c3)CN(C(=O)c3c(C)c(C)cc(C)c3C)CC4)ccc21` : 0.00568

----------
Assay: Volume of distribution at steady state in rat at 1 mg/kg, iv
Type: ADME, organism-based
Conditions: in vivo, read-out: Vdss
Measured Endpoint: Vd (L/kg)
Give bare numbers, in L/kg.

Vd in this record for `CCn1nnc2c(C)c([C@@H](CC(=O)O)c3ccc4c(c3)CN(C(=O)c3c(C)c(C)cc(C)c3C)CC4)ccc21` : 0.707

----------
Experiment: Protein binding in human plasma assessed as unbound fraction at 2 uM by rapid equilibrium dialysis method
Format: ADME, cell-free
Measured Endpoint: fraction unbound at 2 µM
Give bare numbers.

fraction unbound at 2 µM in this record for `CCn1nnc2c(C)c([C@@H](CC(=O)O)c3ccc4c(c3)CN(C(=O)c3c(C)c(C)cc(C)c3C)CC4)ccc21` : 0.00708

----------
Assay: Distribution coefficient, log D of compound at pH 7.4 by shake flask method
Assay type: physicochemical
Details: octanol/water
Measured Endpoint: logD
Answers are plain numbers.

logD in this record for `CCn1nnc2c(C)c([C@@H](CC(=O)O)c3ccc4c(c3)CN(C(=O)c3c(C)c(C)cc(C)c3C)CC4)ccc21` : 1.39

----------
Assay: Clearance in rat at 1 mg/kg, iv
Type: ADME, organism-based
Conditions: in vivo
Measured Endpoint: clearance (mL/min/kg)
Numbers only, in mL/min/kg.

clearance in this record for `CCn1nnc2c(C)c([C@@H](CC(=O)O)c3ccc4c(c3)CN(C(=O)c3c(C)c(C)cc(C)c3C)CC4)ccc21` : 6.16

----------
Experiment: AUC in rat at 5 mg/kg, po
Type: ADME, organism-based
Settings: in vivo
Measured Endpoint: AUC (ng·h/mL)
One number for each entry, in ng·h/mL.

AUC in this record for `CCn1nnc2c(C)c([C@@H](CC(=O)O)c3ccc4c(c3)CN(C(=O)c3c(C)c(C)cc(C)c3C)CC4)ccc21` : 2720

----------
Assay: Protein binding in mouse brain assessed as unbound fraction
Assay type: ADME, tissue-based
Measured Endpoint: fraction unbound
One number for each entry.

fraction unbound in this record for `CCn1nnc2c(C)c([C@@H](CC(=O)O)c3ccc4c(c3)CN(C(=O)c3c(C)c(C)cc(C)c3C)CC4)ccc21` : 0.0211

----------
Assay: Oral bioavailability in rat at 5 mg/kg
Assay type: ADME, organism-based
Conditions: in vivo
Measured Endpoint: bioavailability
Kindly report the value followed by its unit.

bioavailability in this record for `CCn1nnc2c(C)c([C@@H](CC(=O)O)c3ccc4c(c3)CN(C(=O)c3c(C)c(C)cc(C)c3C)CC4)ccc21` : 20%

----------
Experiment: Cmax in rat at 5 mg/kg, po
Assay type: ADME, organism-based
Design: dose 5 mg/kg, route oral
Settings: in vivo
Measured Endpoint: Cmax (ng/mL)
Give bare numbers, in ng/mL.

Cmax in this record for `CCn1nnc2c(C)c([C@@H](CC(=O)O)c3ccc4c(c3)CN(C(=O)c3c(C)c(C)cc(C)c3C)CC4)ccc21` : 958

----------
Experiment: Tmax in rat at 5 mg/kg, po
Format: ADME, organism-based
Settings: in vivo
Measured Endpoint: Tmax (min)
Give bare numbers, in min.

Tmax in this record for `CCn1nnc2c(C)c([C@@H](CC(=O)O)c3ccc4c(c3)CN(C(=O)c3c(C)c(C)cc(C)c3C)CC4)ccc21` : 55.2

----------
Experiment: AUC in rat at 1 mg/kg, iv
Assay type: ADME, organism-based
Details: in vivo
Measured Endpoint: AUC
Kindly report the value followed by its unit.

AUC in this record for `CCn1nnc2c(C)c([C@@H](CC(=O)O)c3ccc4c(c3)CN(C(=O)c3c(C)c(C)cc(C)c3C)CC4)ccc21` : 2510 ng·h/mL

----------
Test: Protein binding in mouse plasma assessed as unbound fraction at 2 uM by rapid equilibrium dialysis method
Assay type: ADME, cell-free
Measured Endpoint: fraction unbound at 2 µM
Give bare numbers.

fraction unbound at 2 µM in this record for `CCn1nnc2c(C)c([C@@H](CC(=O)O)c3ccc4c(c3)CN(C(=O)c3c(C)c(C)cc(C)c3C)CC4)ccc21` : 0.00505

Measured values drawn from ChEMBL document CHEMBL4610043 for this set.
